In this section we review reported MIC values for a set of compounds.
- Tested on: P. aeruginosa 1051575
- assay_procedure: MIC, broth microdilution
- Assay type: cell-based, Pseudomonas aeruginosa
- test_conditions: Pseudomonas aeruginosa, 1051575, 24 h, 24 h
Respond with the bare value in µg/mL.

Known results for compounds:
INSERT INTO results (compound, unit, numeric_readout) VALUES
  ('COC(=O)CCC(C)C1CCC2C3C(O)CC4CC(NCCCNCCCN)CCC4(C)C3CC(O)C12C (stereo not shown)', 'µg/mL', 13),
  ('COC(=O)CCC(C)C1CCC2C3CCC4CC(NCCCN5CCN(CCCN)CC5)CCC4(C)C3CC(O)C12C (stereo not shown)', 'µg/mL', 15),
  ('CC(C)OC(=O)CCC(C)C1CCC2C3C(O)CC4CC(NCCCNCCCN)CCC4(C)C3CC(O)C12C (stereo not shown)', 'µg/mL', 28),
  ('CC(C)OC(=O)CCC(C)C1CCC2C3CCC4CC(NCCCNCCCCN)CCC4(C)C3CC(O)C12C (stereo not shown)', 'µg/mL', 14);

Enquiry: # get_value(readout='MIC', item= CC(C)OC(=O)CCC(C)C1CCC2C3CCC4CC(NCCN(CCN)CCN)CCC4(C)C3CCC12C (stereo not shown) )
Return: 55

Enquiry: # get_value(readout='MIC', item= COC(=O)CCC(C)C1CCC2C3CCC4CC(NCCCNCCCN)CCC4(C)C3CC(O)C12C (stereo not shown) )
Return: 3

Enquiry: # get_value(readout='MIC', item= CC(C)OC(=O)CCC(C)C1CCC2C3CCC4CC(NCCCNCCCCNCCCN)CCC4(C)C3CC(O)C12C (stereo not shown) [Claramine A01, 3-Spermino Isopropyl Deoxycholate] )
Return: 15
